Target: OTU domain-containing protein 3 (Homo sapiens) (UniProt Q5T2D3)
Sequence (Q5T2D3 whole entry, looked up, the tested form may be a part): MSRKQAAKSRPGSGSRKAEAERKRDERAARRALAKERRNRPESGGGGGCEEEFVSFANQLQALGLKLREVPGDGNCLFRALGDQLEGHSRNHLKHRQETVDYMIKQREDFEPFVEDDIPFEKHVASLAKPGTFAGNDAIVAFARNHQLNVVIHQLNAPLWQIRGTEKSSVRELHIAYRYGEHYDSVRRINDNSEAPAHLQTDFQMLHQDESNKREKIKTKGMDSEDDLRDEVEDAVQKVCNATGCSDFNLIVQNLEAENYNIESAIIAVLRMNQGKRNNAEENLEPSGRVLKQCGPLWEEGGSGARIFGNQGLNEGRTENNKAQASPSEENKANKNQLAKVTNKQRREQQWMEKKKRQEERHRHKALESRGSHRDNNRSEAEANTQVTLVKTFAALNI
Assay: Validation of screening hits, potency titration, in vitro enzymatic, OTU domain-containing protein 3 DUB inhibitors (AID 1645868)
Conditions: purified OTUD3, ubiquitin-rhodamine cleavage fluorescence, 2 h
Activity calls are given as the source filed them.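 How the source made its calls: active means maximal percent inhibition of the deubiquitinase OTUD3 of at least 30% across the tested doses; inactive means the rest.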
In this section, each of the compounds is paired with its reported IC50.
Measured Parameter: IC50

>>> print(df.to_string())
                                   compound                       experimental_system  experimental_value
0        CN(C)CCc1cc2c(c3c1ccc1ccccc13)OCO2  OTU domain-containing protein 3 (Homo sapiens) (UniProt Q5T2D3)  > 50 µM (inactive)
1  Cn1c(CCN2CCCC2)nc2cc(NC(=O)c3ccccc3)ccc21  OTU domain-containing protein 3 (Homo sapiens) (UniProt Q5T2D3)  > 50 µM (inactive)
2  CN(C)C(=O)CSc1nnc(-c2cccc(Cl)c2)n1-c1ccc(Cl)c(C(F)(F)F)c1  OTU domain-containing protein 3 (Homo sapiens) (UniProt Q5T2D3)  > 50 µM (inactive)
3  COc1ccccc1NC(=O)Cn1cc(C(=O)c2ccc(C)cc2)c(=O)c2cc(Cl)ccc21  OTU domain-containing protein 3 (Homo sapiens) (UniProt Q5T2D3)             23.9 µM
4  O=C(COC(=O)C1CCCN1C(=O)C12CC3CC(CC(C3)C1)C2)c1ccc(Cl)cc1 (stereo not given)  OTU domain-containing protein 3 (Homo sapiens) (UniProt Q5T2D3)  > 50 µM (inactive)
5       c1ccc2c(Cc3nc(-c4ccncc4)no3)cccc2c1  OTU domain-containing protein 3 (Homo sapiens) (UniProt Q5T2D3)  > 50 µM (inactive)
6  COc1cccc2c1OCC(NS(=O)(=O)c1cc(C)ccc1C)C2 (stereo not given)  OTU domain-containing protein 3 (Homo sapiens) (UniProt Q5T2D3)  > 50 µM (inactive)
7  O=C(Nc1ccccc1Cl)N(Cc1cc2cc3c(cc2[nH]c1=O)OCCO3)C1CCCCC1  OTU domain-containing protein 3 (Homo sapiens) (UniProt Q5T2D3)             40.6 µM
8  Cc1ccc(C(=O)Nc2cc3c4c(c2)CC(=O)N4CCC3)cc1C  OTU domain-containing protein 3 (Homo sapiens) (UniProt Q5T2D3)  > 50 µM (inactive)
9  Cc1ccccc1-c1nnc(-c2ccc(C(=O)NCc3ccccc3F)cc2)o1  OTU domain-containing protein 3 (Homo sapiens) (UniProt Q5T2D3)             31.6 µM
